- system: CK1α (Homo sapiens, UniProt P48729+Q96SW2)
- Construct: expressed in transfected cells; host or cells: HEK293T (lentiviral transduction, puromycin selection, FACS sorting)
- Sequence (P48729 whole entry, one chain of several): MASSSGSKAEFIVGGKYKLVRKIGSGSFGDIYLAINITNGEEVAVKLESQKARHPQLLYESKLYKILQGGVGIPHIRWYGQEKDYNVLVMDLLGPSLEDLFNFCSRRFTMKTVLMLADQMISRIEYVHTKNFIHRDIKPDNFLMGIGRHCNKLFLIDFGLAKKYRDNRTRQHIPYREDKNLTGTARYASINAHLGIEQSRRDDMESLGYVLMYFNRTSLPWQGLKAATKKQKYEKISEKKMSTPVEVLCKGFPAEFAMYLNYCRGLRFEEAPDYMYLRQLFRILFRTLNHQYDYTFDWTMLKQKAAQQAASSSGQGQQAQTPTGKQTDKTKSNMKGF
- procedure text: Flow cytometry for measuring degradation, HEK293T GFP-POI reporter cells (CK1α)
- Type: cell-based
- experimental context: 1 μM, 24 h, HEK293T GFP reporter
# CK1α % degradation at 1 μM per entry
Form entry: value (%) — number only.

Worked set:
compound	unit name	CK1α % degradation at 1 μM
O=C1CCC(N2Cc3cc(NC(=O)C4=Cc5cc(Br)cc(Br)c5OC4)ccc3C2=O)C(=O)N1 (stereo not shown)	%	54.7
COc1cc(Br)cc2c1OCC(C(=O)Nc1ccc3c(c1)CN(C1CCC(=O)NC1=O)C3=O)=C2 (stereo not shown)	%	68
COc1ccc2c(c1)OCC(C(=O)Nc1ccc3c(c1)CN(C1CCC(=O)NC1=O)C3=O)=C2 (stereo not shown)	%	64.8
O=C1CCC(N2Cc3cc(NC(=O)c4cc5ccccc5o4)ccc3C2=O)C(=O)N1 (stereo not shown)	%	63.3
O=C1CCC(N2Cc3cc(NC(=O)c4cccc(C(=O)c5ccccc5)c4)ccc3C2=O)C(=O)N1 (stereo not shown)	%	69.8
CC(=O)Nc1ccc2c(c1)CN(C1CCC(=O)NC1=O)C2=O (stereo not shown)	%	25.4
O=C1CCC(N2Cc3cc(NC(=O)c4ccc(Oc5ccccc5)cc4)ccc3C2=O)C(=O)N1 (stereo not shown)	%	65.8
O=C1CCC(N2Cc3cc(NC(=O)C4=COc5ccccc5O4)ccc3C2=O)C(=O)N1 (stereo not shown)	%	60.3
COc1ccc2cccc(CC(=O)Nc3ccc4c(c3)CN(C3CCC(=O)NC3=O)C4=O)c2c1 (stereo not shown)	%	64.4
O=C1CCC(N2Cc3cc(NC(=O)c4ccc5ncsc5c4)ccc3C2=O)C(=O)N1 (stereo not shown)	%	54.5

response.value for C[C@H](NC(=O)c1ccccc1)C(=O)Nc1ccc2c(c1)CN(C1CCC(=O)NC1=O)C2=O (stereo partly shown) (field: CK1α % degradation at 1 μM) = 41.2

response.value for CSc1ccc2cc(C(=O)Nc3ccc4c(c3)CN(C3CCC(=O)NC3=O)C4=O)ccc2c1 (stereo not shown) (field: CK1α % degradation at 1 μM) = 80.1

response.value for O=C1CCC(N2Cc3cc(NC(=O)c4ccc5c(c4)CCCC5)ccc3C2=O)C(=O)N1 (stereo not shown) (field: CK1α % degradation at 1 μM) = 56.9

response.value for O=C1CCC(N2Cc3cc(NC(=O)C4=Cc5ccc(OC(F)(F)F)cc5OC4)ccc3C2=O)C(=O)N1 (stereo not shown) (field: CK1α % degradation at 1 μM) = 62.7

response.value for COc1cc(C(=O)Nc2ccc3c(c2)CN(C2CCC(=O)NC2=O)C3=O)ccc1Oc1ccccc1 (stereo not shown) (field: CK1α % degradation at 1 μM) = 69.9

----------
- system: IKZF2 (Homo sapiens, UniProt Q96SW2+Q9UKS7)
- Construct: expressed in transfected cells; host or cells: HEK293T (lentiviral transduction, puromycin selection, FACS sorting)
- Sequence (Q9UKS7 whole entry, one chain of several): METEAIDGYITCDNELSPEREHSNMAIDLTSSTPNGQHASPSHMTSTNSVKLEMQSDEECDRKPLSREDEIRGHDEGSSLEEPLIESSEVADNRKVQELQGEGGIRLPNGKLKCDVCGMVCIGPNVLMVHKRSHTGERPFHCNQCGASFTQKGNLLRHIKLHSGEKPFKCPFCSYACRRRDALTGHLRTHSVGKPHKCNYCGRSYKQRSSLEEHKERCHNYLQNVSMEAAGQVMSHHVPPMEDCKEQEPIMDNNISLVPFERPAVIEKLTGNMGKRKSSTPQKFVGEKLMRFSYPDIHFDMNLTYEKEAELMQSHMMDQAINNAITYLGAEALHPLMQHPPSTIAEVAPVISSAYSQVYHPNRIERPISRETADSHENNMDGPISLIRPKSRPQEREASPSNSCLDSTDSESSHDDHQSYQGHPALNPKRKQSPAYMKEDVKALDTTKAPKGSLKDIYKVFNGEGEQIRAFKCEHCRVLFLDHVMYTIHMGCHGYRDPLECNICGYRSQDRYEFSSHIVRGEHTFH
- procedure text: Flow cytometry for measuring degradation, HEK293T GFP-POI reporter cells (IKZF2)
- Format: cell-based
- experimental context: Table 3
Binarize DC50 at 0.08 µM; below is rule met, at or above is rule not met.

molecule	qualitative label
COCOc1ccc2cc(C(=O)Nc3ccc4c(c3)CN(C3CCC(=O)NC3=O)C4=O)ccc2c1 (centres unmarked)	rule met

**Q:** is_below(DC50, 0.08 µM) for CSc1ccc2cc(C(=O)Nc3ccc4c(c3)CN(C3CCC(=O)NC3=O)C4=O)ccc2c1 (centres unmarked) ?
**A:** rule met

**Q:** is_below(DC50, 0.08 µM) for CN1C(=O)CCc2cc(C(=O)Nc3ccc4c(c3)CN(C3CCC(=O)NC3=O)C4=O)ccc21 (centres unmarked) ?
**A:** rule not met

**Q:** is_below(DC50, 0.08 µM) for C[C@H](NC(=O)c1ccccc1)C(=O)Nc1ccc2c(c1)CN(C1CCC(=O)NC1=O)C2=O (some centres unmarked) ?
**A:** rule not met

**Q:** is_below(DC50, 0.08 µM) for CS(=O)(=O)c1ccc2cc(C(=O)Nc3ccc4c(c3)CN(C3CCC(=O)NC3=O)C4=O)ccc2c1 (centres unmarked) ?
**A:** rule met

**Q:** is_below(DC50, 0.08 µM) for CC(=O)N1CCC[C@H]1C(=O)Nc1ccc2c(c1)CN(C1CCC(=O)NC1=O)C2=O (some centres unmarked) ?
**A:** rule not met

**Q:** is_below(DC50, 0.08 µM) for N#Cc1ccc2cc(C(=O)Nc3ccc4c(c3)CN(C3CCC(=O)NC3=O)C4=O)ccc2c1 (centres unmarked) ?
**A:** rule met

----------
- system: IKZF1 (Homo sapiens, UniProt Q13422+Q96SW2)
- Construct: expressed in transfected cells; host or cells: HEK293T (lentiviral transduction, puromycin selection, FACS sorting)
- Sequence (Q13422 whole entry): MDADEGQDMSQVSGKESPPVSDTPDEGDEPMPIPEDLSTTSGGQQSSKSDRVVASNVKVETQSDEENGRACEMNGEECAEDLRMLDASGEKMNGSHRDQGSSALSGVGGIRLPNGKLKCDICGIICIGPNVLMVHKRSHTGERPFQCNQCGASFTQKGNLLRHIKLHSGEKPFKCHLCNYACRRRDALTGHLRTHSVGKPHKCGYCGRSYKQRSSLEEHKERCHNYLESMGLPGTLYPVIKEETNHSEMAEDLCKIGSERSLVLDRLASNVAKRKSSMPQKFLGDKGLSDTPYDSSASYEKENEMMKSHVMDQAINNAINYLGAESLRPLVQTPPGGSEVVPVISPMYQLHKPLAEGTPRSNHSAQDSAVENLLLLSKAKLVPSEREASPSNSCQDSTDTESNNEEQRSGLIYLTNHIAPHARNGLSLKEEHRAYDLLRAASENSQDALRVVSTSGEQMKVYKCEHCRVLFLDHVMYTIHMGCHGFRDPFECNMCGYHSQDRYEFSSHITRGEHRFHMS
- Sequence (Q96SW2 whole entry): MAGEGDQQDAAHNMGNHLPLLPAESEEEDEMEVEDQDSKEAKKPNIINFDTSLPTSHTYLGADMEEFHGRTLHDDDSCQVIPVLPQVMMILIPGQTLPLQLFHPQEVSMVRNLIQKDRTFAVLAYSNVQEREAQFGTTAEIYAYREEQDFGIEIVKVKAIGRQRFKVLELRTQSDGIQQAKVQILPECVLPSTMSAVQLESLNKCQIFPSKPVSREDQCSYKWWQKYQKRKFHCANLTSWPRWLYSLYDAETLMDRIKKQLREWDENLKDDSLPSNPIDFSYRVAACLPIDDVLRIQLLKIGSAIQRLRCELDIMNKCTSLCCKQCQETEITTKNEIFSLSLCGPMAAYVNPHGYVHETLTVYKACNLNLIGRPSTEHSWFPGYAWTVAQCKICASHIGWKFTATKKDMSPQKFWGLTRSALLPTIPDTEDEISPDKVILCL
- Sequence (Q16531 whole entry partner): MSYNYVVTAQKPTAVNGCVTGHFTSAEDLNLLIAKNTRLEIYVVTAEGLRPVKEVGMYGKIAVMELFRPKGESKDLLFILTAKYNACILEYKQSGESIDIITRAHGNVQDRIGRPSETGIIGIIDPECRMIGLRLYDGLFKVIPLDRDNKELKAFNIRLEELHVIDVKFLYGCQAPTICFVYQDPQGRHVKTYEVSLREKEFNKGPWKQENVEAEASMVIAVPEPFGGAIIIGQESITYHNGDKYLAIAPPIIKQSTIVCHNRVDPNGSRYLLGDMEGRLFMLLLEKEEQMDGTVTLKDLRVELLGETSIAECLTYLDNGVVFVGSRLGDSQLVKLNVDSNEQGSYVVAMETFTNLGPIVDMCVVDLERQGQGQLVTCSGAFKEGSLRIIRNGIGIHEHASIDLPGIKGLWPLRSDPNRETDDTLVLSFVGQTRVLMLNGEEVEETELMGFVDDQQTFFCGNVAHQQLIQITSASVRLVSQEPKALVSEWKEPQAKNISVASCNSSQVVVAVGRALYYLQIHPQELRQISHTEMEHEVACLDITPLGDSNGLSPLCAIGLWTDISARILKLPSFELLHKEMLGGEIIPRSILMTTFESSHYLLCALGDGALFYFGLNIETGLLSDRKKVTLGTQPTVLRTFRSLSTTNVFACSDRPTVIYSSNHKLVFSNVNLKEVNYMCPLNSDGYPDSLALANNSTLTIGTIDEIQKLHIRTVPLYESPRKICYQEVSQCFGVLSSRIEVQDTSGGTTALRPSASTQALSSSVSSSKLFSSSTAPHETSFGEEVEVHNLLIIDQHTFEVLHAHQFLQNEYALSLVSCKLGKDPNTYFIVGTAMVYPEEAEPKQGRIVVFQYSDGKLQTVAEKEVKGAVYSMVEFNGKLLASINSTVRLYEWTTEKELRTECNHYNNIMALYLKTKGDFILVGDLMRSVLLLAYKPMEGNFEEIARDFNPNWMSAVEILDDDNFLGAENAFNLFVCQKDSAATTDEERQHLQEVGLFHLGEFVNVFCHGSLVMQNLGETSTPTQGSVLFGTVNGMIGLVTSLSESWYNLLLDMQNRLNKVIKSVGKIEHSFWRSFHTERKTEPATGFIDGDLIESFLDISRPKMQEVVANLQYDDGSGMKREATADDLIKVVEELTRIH
- procedure text: Flow cytometry for measuring degradation, HEK293T GFP-POI reporter cells (IKZF1)
- Assay type: cell-based
- experimental context: HEK-293T; Table 3
measurement kind: Dmax (%)
Form entry: value (%) — number only.

Worked set:
compound	Dmax, %
CS(=O)(=O)c1ccc2cc(C(=O)Nc3ccc4c(c3)CN(C3CCC(=O)NC3=O)C4=O)ccc2c1 (centres unmarked) [DEG-93]	10.4
CC(=O)N1CCC[C@H]1C(=O)Nc1ccc2c(c1)CN(C1CCC(=O)NC1=O)C2=O (some centres unmarked) [DEG-96]	8.3

The recorded Dmax with IKZF1 (Homo sapiens, UniProt Q13422+Q96SW2) for N#Cc1ccc2cc(C(=O)Nc3ccc4c(c3)CN(C3CCC(=O)NC3=O)C4=O)ccc2c1 (centres unmarked) [DEG-91] was 20.6

The recorded Dmax with IKZF1 (Homo sapiens, UniProt Q13422+Q96SW2) for CN1C(=O)CCc2cc(C(=O)Nc3ccc4c(c3)CN(C3CCC(=O)NC3=O)C4=O)ccc21 (centres unmarked) [DEG-97] was 13.1

The recorded Dmax with IKZF1 (Homo sapiens, UniProt Q13422+Q96SW2) for C[C@H](NC(=O)c1ccccc1)C(=O)Nc1ccc2c(c1)CN(C1CCC(=O)NC1=O)C2=O (some centres unmarked) [DEG-98] was 88

The recorded Dmax with IKZF1 (Homo sapiens, UniProt Q13422+Q96SW2) for CSc1ccc2cc(C(=O)Nc3ccc4c(c3)CN(C3CCC(=O)NC3=O)C4=O)ccc2c1 (centres unmarked) [DEG-95] was 17.2

The recorded Dmax with IKZF1 (Homo sapiens, UniProt Q13422+Q96SW2) for COCOc1ccc2cc(C(=O)Nc3ccc4c(c3)CN(C3CCC(=O)NC3=O)C4=O)ccc2c1 (centres unmarked) [DEG-92] was 14.5

The recorded Dmax with IKZF1 (Homo sapiens, UniProt Q13422+Q96SW2) for CN1C(=O)COc2cc(C(=O)Nc3ccc4c(c3)CN(C3CCC(=O)NC3=O)C4=O)ccc21 (centres unmarked) [DEG-94] was 30.5

----------
# IKZF2% degradation at 1 μM per entry
- system: IKZF2 (Homo sapiens, UniProt Q96SW2+Q9UKS7)
- Construct: expressed in transfected cells; host or cells: HEK293T (lentiviral transduction, puromycin selection, FACS sorting)
- procedure text: Flow cytometry for measuring degradation, HEK293T GFP-POI reporter cells (IKZF2)
- Type: cell-based
- experimental context: 1 μM, 24 h, HEK293T GFP reporter
Form entry: value (%) — number only.

Worked set:
molecule	IKZF2% degradation at 1 μM / %
CS(=O)(=O)c1ccc2cc(C(=O)Nc3ccc4c(c3)CN(C3CCC(=O)NC3=O)C4=O)ccc2c1 (stereo not shown) [DEG-93]	87.7
O=C1CCC(N2Cc3cc(NC(=O)C4=COc5ccccc5O4)ccc3C2=O)C(=O)N1 (stereo not shown) [DEG-63]	90.7
COCOc1ccc2cc(C(=O)Nc3ccc4c(c3)CN(C3CCC(=O)NC3=O)C4=O)ccc2c1 (stereo not shown) [DEG-92]	94.5

response.value for COc1cc(Br)cc2c1OCC(C(=O)Nc1ccc3c(c1)CN(C1CCC(=O)NC1=O)C3=O)=C2 (stereo not shown) [DEG-84] (field: IKZF2% degradation at 1 μM) = 87.8

----------
- procedure text: In vitro metabolic stability
- Type: in vitro ADME
- experimental context: read-out: in vitro metabolic stability t1/2
measurement kind: half-life

response.value for COc1cccc2c1OCC(C(=O)Nc1ccc3c(c1)CN(C1CCC(=O)NC1=O)C3=O)=C2 (stereo not shown) (field: half-life) = > 6 h

----------
- system: CK1α (Homo sapiens, UniProt P48729+Q96SW2)
- Construct: expressed in transfected cells; host or cells: HEK293T (lentiviral transduction, puromycin selection, FACS sorting)
- procedure text: Flow cytometry for measuring degradation, HEK293T GFP-POI reporter cells (CK1α)
- Format: cell-based
- experimental context: 1 μM, 24 h, HEK293T GFP reporter
met means recorded CK1α % degradation at 1 μM is 60% or above; not met means it is below 60%.

molecule	qualitative label
COc1cccc2c1OCC(C(=O)Nc1ccc3c(c1)CN(C1CCC(=O)NC1=O)C3=O)=C2 (centres unmarked) [DEG-77]	met
CS(=O)(=O)c1ccc2cc(C(=O)Nc3ccc4c(c3)CN(C3CCC(=O)NC3=O)C4=O)ccc2c1 (centres unmarked) [DEG-93]	met
O=C1CCC(N2Cc3cc(NC(=O)c4ccc5cc(O)ccc5c4)ccc3C2=O)C(=O)N1 (centres unmarked) [DEG-90]	met

**Q:** API: above_or_equal(metric=CK1α % degradation at 1 μM, cutoff=60%) for item COc1cc(Oc2ccccc2)ccc1C(=O)Nc1ccc2c(c1)CN(C1CCC(=O)NC1=O)C2=O (centres unmarked) [DEG-75]
**A:** met

**Q:** API: above_or_equal(metric=CK1α % degradation at 1 μM, cutoff=60%) for item COc1cccc2c1C=C(C(=O)Nc1ccc3c(c1)CN(C1CCC(=O)NC1=O)C3=O)CO2 (centres unmarked) [DEG-79]
**A:** not met

**Q:** API: above_or_equal(metric=CK1α % degradation at 1 μM, cutoff=60%) for item O=C1CCC(N2Cc3cc(NC(=O)Cc4cccc5ccccc45)ccc3C2=O)C(=O)N1 (centres unmarked) [DEG-67]
**A:** met

**Q:** API: above_or_equal(metric=CK1α % degradation at 1 μM, cutoff=60%) for item COc1ccc(CCC(=O)Nc2ccc3c(c2)CN(C2CCC(=O)NC2=O)C3=O)cc1 (centres unmarked) [DEG-57]
**A:** not met

**Q:** API: above_or_equal(metric=CK1α % degradation at 1 μM, cutoff=60%) for item CC(=O)N1CCC[C@H]1C(=O)Nc1ccc2c(c1)CN(C1CCC(=O)NC1=O)C2=O (some centres unmarked) [DEG-96]
**A:** not met
